- TARGET_OR_SYSTEM: T1, hMEX3B KH2 WT (Homo sapiens, UniProt Q6ZN04 156-230)
- T1 sequence: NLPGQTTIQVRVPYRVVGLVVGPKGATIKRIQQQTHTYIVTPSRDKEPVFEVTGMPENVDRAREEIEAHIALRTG
- EXPERIMENT_NOTES: ITC; N 1.02; ITC at 298 K, protein injected into RNA, both dialyzed in the same buffer (composition not in the material; purification SEC buffer 2 M NaCl, 20 mM Tris pH 7.5); NMR at 298 K, 0.1 mM protein
- SETUP_CONDITIONS: protein: recombinant; tags: modified pET28a without thrombin site (His tag likely retained)

BINDER	Kd [µM]
CUGAGC (ssRNA) [6-nt RNA CUGAGC]	9.57
